- assay-summary: Induction of nitric oxide release in potassium phosphate buffer at pH 7.4 at 0.1 mM after 60 mins by Griess assay
- Format: physicochemical
- condition-info: pH 7.4, 1 h, 100 µM
Can you tell me Activity for the items I'm about to list?

For orientation, consider the following solved cases.
{"columns": ["compound", "Activity"],
 "data": [
  ["CCCCC(OC(=O)CN1CCN(CCCCCCOc2ccc(-c3cc(=S)ss3)cc2)CC1)c1ccccc1C(=O)Oc1ccc(/C=C/C(=O)OCCCCCCO[N+](=O)[O-])cc1OC (racemic)", "7.88 µM"],
  ["CCCCC(OC(=O)CN1CCN(CCCOc2ccc(-c3cc(=S)ss3)cc2)CC1)c1ccccc1C(=O)Oc1ccc(/C=C/C(=O)OCCCCO[N+](=O)[O-])cc1OC (racemic)", "2.22 µM"]
]}

Q: Endpoint output: Activity of CCCCC(OC(=O)CN1CCN(CCOc2ccc(-c3cc(=S)ss3)cc2)CC1)c1ccccc1C(=O)Oc1ccc(/C=C/C(=O)OCCCCCCO[N+](=O)[O-])cc1OC (racemic) . Value?
Ans: 6.58 µM
